Assay text: growth suppression of yeast trafficking mutant, preliminary HTS, modulators of trafficking downstream of Golgi apparatus project, 1536-format plate, OD 615 nm (AID 637)
Condition parameters: yeast transport mutant growth, absorbance 615 nm, 18 h; stronger effect = higher value
Some compounds, each annotated with its measured inhibition.
Enter your answer as a number in %; do not include the unit.

Cc1ccc(CCNC(=O)C2CCN(S(=O)(=O)c3c(C)nn(C)c3C)CC2)cc1; -2

What value of inhibition has been reported for the following compound? `CCCC(=O)Nc1nnc(Sc2ccc(N(C)C)cc2)s1`
-8.73

What would you report for `Cc1cnn(Cc2ccccc2)c1N` ?
4.76

What would you report for CN1C2C=C3C(C#N)=C(N)C(C#N)(C#N)[C@@H](c4ccc(Cl)cc4)[C@@H]3C1CC2 (stereo not given in full) ?
-0.32

What would you report for `COc1ccc(N(CC(=O)NC2CCCC2)C(=O)Cn2nnc(-c3ccc(C)cc3)n2)cc1` ?
-7.58

* * *

Assay text: 384-well plate pilot, post-Golgi transport modulator project, inhibition of yeast transport mutant growth (AID 636)
Condition parameters: absorbance 615 nm, about 18 h, stronger effect = higher value
Some molecules, each annotated with its measured inhibition.
Enter your answer as a number in %; do not include the unit.

Below, each entry is followed by its recorded inhibition result.
COc1ccc2[nH]c(=O)c(CN(Cc3cccs3)S(=O)(=O)c3cccc4nsnc34)cc2c1; -6.44
COC(=O)c1ccc(NC(=O)C2CC(=O)N(c3cc(C)ccc3C)C2)cc1 (stereo not given); -1.76
COc1ccccc1C(=O)N1CCNC(=O)C1CC(=O)Nc1ccc(Cl)cc1 (stereo not given); 1.71
O=C(CSc1nnc(-c2c[nH]c3ccccc23)o1)N(Cc1ccccc1)c1ccc(F)cc1; 2.53
CN(C(=O)COC(=O)C1CCN(S(=O)(=O)c2cccs2)CC1)C1CCS(=O)(=O)C1 (stereo not given); -4.4
CC(=O)c1cccc(S(=O)(=O)NCC(c2ccco2)N2CCCCC2)c1 (stereo not given); -0.91
CCN1CCN(C(c2ccc(F)cc2)c2nnnn2Cc2cccs2)CC1 (stereo not given); -1.15
COc1ccc(CNC(=O)CCc2nc(-c3ccccc3F)no2)c(OC)c1; -4.08

What value of inhibition has been reported for the following molecule? `Cc1cc(NC(=O)Cn2cnc3c(cnn3C(C)(C)C)c2=O)no1`
0.66

What would you report for `Cc1ccccc1CSCC(=O)c1c(N)n(C)c(=O)n(C)c1=O` ?
-2.37

* * *

Some molecules, each annotated with its measured Her2 level.
System tested: Receptor tyrosine-protein kinase erbB-2 (Homo sapiens)
Assay text: reducers of endogenous Her2 protein level, primary screen, SKBR3 breast tumor cells, AlphaScreen, ATP viability (AID 461);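 further: lower value means less Her2 protein in the cells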
Condition parameters: 18-24 h, at 10 µM, stronger effect = lower value
Activity calls are given as the source filed them.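 How the source made its calls: active means Her2 level under about 52% in both replicate screens, with viability over 70% of control (limit read from the data); inconclusive means Her2 under the limit in one screen only, or viability under 70%; inactive means Her2 level above the set limit.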

Below, each entry is followed by its recorded Her2 level result.
CC(=O)N(C)C1(c2nnnn2CCOC(=O)Nc2ccc(Cl)cc2)CCCCC1; 114% (inactive)
COC(=O)C1=C(C)NC(=O)C1(NC(=O)c1cccnc1)C(F)(F)F (configuration not stated); 96.5% (inactive)
CCSc1ncc(C#N)c(=O)[nH]1; 119% (inactive)

What value of Her2 level has been reported for the following molecule? `O=C1CCCC(O)=C1C=Nc1ccc2c(c1)oc1ccccc12`
101% (inactive)

What would you report for `CCC(=O)N1Cc2ccccc2-c2ccccc2C1=O` ?
91% (inactive)

* * *

Assay text: reversal of MRP1-mediated doxorubicin resistance, pilot screen, H69AR cells, doxorubicin co-treatment (AID 601)
Condition parameters: H69AR cells + 2 uM doxorubicin, CellTiter-Glo, 72 h; measured here: viability with 2 uM doxorubicin; at 10 µM; stronger effect = lower value
Mark satisfied for viability under 90%, not satisfied if at or over.

CC(C)C1N=C2c3ccccc3N=C(SCc3cc(=O)n4ccccc4n3)N2C1=O (stereo not given); not satisfied

For this molecule, is viability lower than 90%? `Cc1sc2nc(CN3CCN(S(=O)(=O)c4cccc5nonc45)CC3)[nH]c(=O)c2c1C`
satisfied

What would you report for `Cc1oc2nc(SCCCC(=O)NCCCO)nc(N)c2c1C` ?
not satisfied

* * *

Some compounds, each annotated with its measured differential viability (reversal).
Assay text: reversal of MRP1-mediated doxorubicin resistance, pilot screen, H69AR cells, doxorubicin co-treatment (AID 601)
Condition parameters: H69AR cells + 2 uM doxorubicin, CellTiter-Glo, 72 h; at 10 µM; stronger effect = higher value
Enter your answer as a number in %; do not include the unit.

CCCC(O)(CCN(C)C)c1ccc(OC)cc1 (stereo not drawn); 4.26
O=C(c1ccc2c(c1)c(=O)oc1ccccc12)N1CCCCC1; 14.1
COc1ccc(C2=Nn3c(nnc3-c3cccnc3)SC2)cc1; -16.5
Cc1cc(N2CCC3(CC2)OCCO3)n2nc(C)c(-c3ccc(Cl)cc3)c2n1; 12.5
O=C(CCn1c(=S)[nH]c2cc3c(cc2c1=O)OCO3)N1CCN(C2CCCCC2)CC1; -2.85

What value of differential viability (reversal) has been reported for the following compound? `COCCN1Cc2cccc(C(=O)Nc3cccnc3)c2C1=O`
-4.91

What would you report for `CCCC(=O)N(Cc1cc2ccccc2[nH]c1=O)c1ccccc1OC` ?
5.2

What would you report for Cc1ccc(C)c(/C(O)=C2\C(=O)C(=O)N(CCCN3CCOCC3)C2c2cccnc2)c1 (stereo not drawn) ?
-5.11

What would you report for `O=c1[nH]c2sc3c(c2c2nncn12)CCCC3` ?
7.53

What would you report for `CCOc1ccc2[nH]c(=O)c(CN(Cc3ccccc3)C(=O)N3CCCC3)cc2c1` ?
1.97

What would you report for C[N+]1=C2CCCCCN2C(O)(c2ccccc2)C1 (stereo not drawn) ?
-1.28

What would you report for CCCC(C)C(=O)Nc1ccc(C(N)=O)cc1 (stereo not drawn) ?
7.36

* * *

Some compounds, each annotated with its measured viability.
Assay text: SK-BR-3 cell growth inhibitors, pilot screen, 24 h, human (AID 572);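 further: compound exposure lasted between 18 and 24 h rather than exactly 24 h; 100% = carrier-treated control wells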
Condition parameters: SK-BR-3 viability, CellTiter-Glo luminescence, at 10 µM, stronger effect = lower value
Enter your answer as a number in %; do not include the unit.

Below, each entry is followed by its recorded viability result.
C=CCn1c(SCC(=O)NCCCC)nc2scc(-c3ccco3)c2c1=O; 91.5
Cc1ccc(Cl)cc1N1CCN(C(=O)C2CCCN(S(=O)(=O)c3cnc[nH]3)C2)CC1 (stereo not drawn); 86.5

Could you now look at the following compound, please?
What value of viability has been reported for the following compound? `C/C(=N\O)C(=O)NCCCNCCCN(C)C`
104

* * *

Assay text: reversal of MRP1-mediated doxorubicin resistance, pilot screen, H69AR cells, doxorubicin co-treatment (AID 601)
Condition parameters: H69AR cells + 2 uM doxorubicin, CellTiter-Glo, 72 h; at 10 µM; stronger effect = higher value
Some compounds, each annotated with its measured differential viability (reversal).
Enter your answer as a number in %; do not include the unit.

What value of differential viability (reversal) has been reported for the following compound? CC1=CC2=C(OC1N(C)C)c1cccc3cccc(c13)C2=O (configuration not stated)
-0.375

* * *

Some compounds, each annotated with its measured Her2 level.
System tested: Receptor tyrosine-protein kinase erbB-2 (Homo sapiens) (UniProt P04626)
Sequence (P04626 whole entry, looked up): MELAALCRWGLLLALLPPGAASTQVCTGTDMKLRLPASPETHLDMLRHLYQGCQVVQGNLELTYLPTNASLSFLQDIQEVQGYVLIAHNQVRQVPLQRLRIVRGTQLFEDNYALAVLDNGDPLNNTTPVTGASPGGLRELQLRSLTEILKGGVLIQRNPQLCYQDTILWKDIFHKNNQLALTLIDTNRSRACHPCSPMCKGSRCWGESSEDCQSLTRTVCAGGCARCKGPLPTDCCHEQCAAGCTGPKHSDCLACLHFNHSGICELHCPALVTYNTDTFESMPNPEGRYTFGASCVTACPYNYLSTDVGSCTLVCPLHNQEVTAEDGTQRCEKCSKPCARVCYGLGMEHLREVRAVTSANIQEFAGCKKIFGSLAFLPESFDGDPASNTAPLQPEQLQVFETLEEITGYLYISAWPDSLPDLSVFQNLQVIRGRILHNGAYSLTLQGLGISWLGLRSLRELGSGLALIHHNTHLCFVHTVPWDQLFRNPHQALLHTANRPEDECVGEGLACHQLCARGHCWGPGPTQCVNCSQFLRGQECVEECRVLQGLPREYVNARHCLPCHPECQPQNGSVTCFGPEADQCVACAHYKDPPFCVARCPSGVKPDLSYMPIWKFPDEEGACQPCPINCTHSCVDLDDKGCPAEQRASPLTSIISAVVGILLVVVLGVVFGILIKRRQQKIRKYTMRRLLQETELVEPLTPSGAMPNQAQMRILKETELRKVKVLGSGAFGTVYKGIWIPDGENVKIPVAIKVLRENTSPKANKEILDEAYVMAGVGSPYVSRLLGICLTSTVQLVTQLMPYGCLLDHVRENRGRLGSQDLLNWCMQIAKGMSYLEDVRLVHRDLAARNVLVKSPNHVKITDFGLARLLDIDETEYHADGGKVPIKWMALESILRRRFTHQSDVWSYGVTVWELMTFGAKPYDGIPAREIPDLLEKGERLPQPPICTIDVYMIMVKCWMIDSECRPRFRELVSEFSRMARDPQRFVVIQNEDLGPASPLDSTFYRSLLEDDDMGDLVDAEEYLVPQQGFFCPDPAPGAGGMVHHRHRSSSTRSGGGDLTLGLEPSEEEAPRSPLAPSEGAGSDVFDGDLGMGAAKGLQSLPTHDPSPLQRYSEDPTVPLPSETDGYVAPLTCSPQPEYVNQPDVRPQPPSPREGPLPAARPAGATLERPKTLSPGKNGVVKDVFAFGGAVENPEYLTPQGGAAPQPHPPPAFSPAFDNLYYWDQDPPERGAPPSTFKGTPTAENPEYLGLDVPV
Assay text: reducers of endogenous Her2 protein level, primary screen, SKBR3 breast tumor cells, AlphaScreen, ATP viability (AID 461);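 further: lower value means less Her2 protein in the cells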
Condition parameters: 18-24 h, at 10 µM, stronger effect = lower value
Active and inactive are the calls of the source.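 How the source made its calls: active means Her2 level under about 52% in both replicate screens, with viability over 70% of control (limit read from the data); inconclusive means Her2 under the limit in one screen only, or viability under 70%; inactive means Her2 level above the set limit.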

Below, each entry is followed by its recorded Her2 level result.
Cc1ccc(NC(=O)CCC(=O)OCC(F)(F)C(F)F)cc1; 106% (inactive)
COCCCN1C(=O)C(O)=C(C(=O)c2ccco2)C1c1ccc(Br)cc1 (centres undefined); 89.5% (inactive)

Tell me reported Her2 level for `COC(=O)c1[nH]c2ccc(F)cc2c1NS(=O)(=O)c1ccc(OC)cc1OC` , tested with Receptor tyrosine-protein kinase erbB-2 (Homo sapiens) (UniProt P04626).
75% (inactive)

What would you report for Cc1ccc(/C(O)=C2/C(=O)C(=O)N(Cc3ccco3)C2c2cccs2)cc1 (centres undefined) ?
114% (inactive)

What would you report for CCc1[nH]nc2c1C(c1cccc(OC(=O)N3CCOCC3)c1)C(C#N)=C(N)O2 (centres undefined) ?
124% (inactive)

What would you report for `COc1cccc(Cn2c(Oc3ccccc3)nc3c2c(=O)n(C)c(=O)n3C)c1` ?
104% (inactive)

What would you report for `Cc1noc(C)c1S(=O)(=O)Nc1c(C)n(C)n(-c2ccccc2)c1=O` ?
99% (inactive)

What would you report for `O=C(c1ccc(Cl)c(Cl)c1)N1CCOCC1` ?
103% (inactive)

What would you report for `O=C(c1ccc(-c2ccccc2)cc1)N1CCN(c2ncccn2)CC1` ?
96.5% (inactive)

What would you report for O=C(CN1C(=O)c2ccccc2C1=O)NCC1COc2ccccc2O1 (centres undefined) ?
110% (inactive)

What would you report for `O=C(NCc1cccs1)c1cc2c(s1)-c1ccccc1OC2` ?
91.5% (inactive)

What would you report for `Cc1c(C(=O)OC(C)C)[nH]c2c1C(=O)CCC2` ?
104% (inactive)

What would you report for `Cc1nnc(NC(=O)c2ccccc2F)s1` ?
101% (inactive)

What would you report for `O=C(CCSc1nccn1Cc1ccccc1)N1CCOCC1` ?
111% (inactive)

What would you report for `Cc1c(C#N)sc2nc(-c3ccccc3)nc(N3CCCC3)c12` ?
83% (inactive)
